From: PubChem BioAssay AID2060884

# System: NCI-H929 complex spheroids, viability % test/control
# TEST: Anticancer human tumor NCI-H929 cell line growth inhibition [RAS]; active = viability on the fitted dose curve at most 10% of control; inactive = the rest;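 note: compound exposure lasted seven days before viability was read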
# APPLIED_CONDITIONS: second compound 0.03 µM; first compound 0.316 µM
Labels: active, inactive

COMPOUND	QUALITATIVE_LABEL
CCC(CC)c1cc(NC2CCC(N)C2)n2nccc2n1 (configuration not stated) + CCn1c(-c2cc(N3CCN(C)CC3)cnc2C(C)OC)c2c3cc(ccc31)-c1csc(n1)CC(NC(=O)C1CC1C)C(=O)N1CCCC(N1)C(=O)OCC(C)(C)C2	inactive
C=CC(=O)Nc1cc(Nc2nccc(-c3cn(C)c4ccccc34)n2)c(OC)cc1N(C)CCN(C)C + CCn1c(-c2cc(N3CCN(C)CC3)cnc2C(C)OC)c2c3cc(ccc31)-c1csc(n1)CC(NC(=O)C1CC1C)C(=O)N1CCCC(N1)C(=O)OCC(C)(C)C2	inactive
CC(Nc1ccc2c(c1)OCCn1cc(N3C(=O)OCC3C(F)F)nc1-2)C(N)=O (configuration not stated) + CCn1c(-c2cc(N3CCN(C)CC3)cnc2C(C)OC)c2c3cc(ccc31)-c1csc(n1)CC(NC(=O)C1CC1C)C(=O)N1CCCC(N1)C(=O)OCC(C)(C)C2	active
O=C(c1ccc(F)c(F)c1Nc1ccc(I)cc1F)N1CC(O)([C@@H]2CCCCN2)C1 + CCn1c(-c2cc(N3CCN(C)CC3)cnc2C(C)OC)c2c3cc(ccc31)-c1csc(n1)CC(NC(=O)C1CC1C)C(=O)N1CCCC(N1)C(=O)OCC(C)(C)C2	active
C[C@@H](NC(=O)c1ncnc(N)c1Cl)c1ncc(C(=O)Nc2cc(C(F)(F)F)c(Cl)cn2)s1 + CCn1c(-c2cccnc2C(C)OC)c2c3cc(ccc31)N1CCOC(CC(NC(=O)C(C(C)C)N(C)C(=O)C3(F)CCN(C(=O)C#CC(C)(C)N(C)C)CC3)C(=O)N3CCCC(N3)C(=O)OCC(C)(C)C2)C1	inactive
CCC(CC)c1cc(NC2CCC(N)C2)n2nccc2n1 (configuration not stated) + CCn1c(-c2cccnc2C(C)OC)c2c3cc(ccc31)N1CCOC(CC(NC(=O)C(C(C)C)N(C)C(=O)C3(F)CCN(C(=O)C#CC(C)(C)N(C)C)CC3)C(=O)N3CCCC(N3)C(=O)OCC(C)(C)C2)C1	inactive
CCN1CCN(Cc2ccc(Nc3ncc(F)c(-c4cc(F)c5nc(C)n(C(C)C)c5c4)n3)nc2)CC1 + CCn1c(-c2cccnc2C(C)OC)c2c3cc(ccc31)N1CCOC(CC(NC(=O)C(C(C)C)N(C)C(=O)C3(F)CCN(C(=O)C#CC(C)(C)N(C)C)CC3)C(=O)N3CCCC(N3)C(=O)OCC(C)(C)C2)C1	inactive
NC1c2ccccc2OC12CCN(c1cnc3c(N4CCCc5ncccc54)n[nH]c3n1)CC2 (configuration not stated) + CCn1c(-c2cc(N3CCN(C)CC3)cnc2C(C)OC)c2c3cc(ccc31)-c1csc(n1)CC(NC(=O)C1CC1C)C(=O)N1CCCC(N1)C(=O)OCC(C)(C)C2	inactive
Cc1nc(N2CCC3(CC2)COC(C)C3N)c(CO)nc1Sc1ccnc(N)c1Cl (configuration not stated) + CCn1c(-c2cc(N3CCN(C)CC3)cnc2C(C)OC)c2c3cc(ccc31)-c1csc(n1)CC(NC(=O)C1CC1C)C(=O)N1CCCC(N1)C(=O)OCC(C)(C)C2	inactive
CC(Nc1ccc2c(c1)OCCn1cc(N3C(=O)OCC3C(F)F)nc1-2)C(N)=O (configuration not stated) + CCn1c(-c2cccnc2C(C)OC)c2c3cc(ccc31)N1CCOC(CC(NC(=O)C(C(C)C)N(C)C(=O)C3(F)CCN(C(=O)C#CC(C)(C)N(C)C)CC3)C(=O)N3CCCC(N3)C(=O)OCC(C)(C)C2)C1	inactive
NC1c2ccccc2OC12CCN(c1cnc3c(N4CCCc5ncccc54)n[nH]c3n1)CC2 (configuration not stated) + CCn1c(-c2cccnc2C(C)OC)c2c3cc(ccc31)N1CCOC(CC(NC(=O)C(C(C)C)N(C)C(=O)C3(F)CCN(C(=O)C#CC(C)(C)N(C)C)CC3)C(=O)N3CCCC(N3)C(=O)OCC(C)(C)C2)C1	inactive
CC(C)NCC(C(=O)N1CCN(c2ncnc3c2C(C)CC3O)CC1)c1ccc(Cl)cc1 (configuration not stated) + CCn1c(-c2cc(N3CCN(C)CC3)cnc2C(C)OC)c2c3cc(ccc31)-c1csc(n1)CC(NC(=O)C1CC1C)C(=O)N1CCCC(N1)C(=O)OCC(C)(C)C2	active
